B1: library; numbered along this chain (parent)
chain: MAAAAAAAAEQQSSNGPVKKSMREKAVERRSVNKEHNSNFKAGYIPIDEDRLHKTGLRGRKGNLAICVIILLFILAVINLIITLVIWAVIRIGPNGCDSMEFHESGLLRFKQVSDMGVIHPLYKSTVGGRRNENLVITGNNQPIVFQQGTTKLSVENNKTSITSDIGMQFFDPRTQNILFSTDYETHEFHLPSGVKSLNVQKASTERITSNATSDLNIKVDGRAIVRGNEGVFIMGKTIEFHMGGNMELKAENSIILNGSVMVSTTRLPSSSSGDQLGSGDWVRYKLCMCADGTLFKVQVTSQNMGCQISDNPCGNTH

Variants of: B1
Assay: SGCB cell-surface expression functional score (HA stain, bin4 vs bin1, normalised to synonymous) (log10 ratio); higher = more cell-surface SGCB (functional)
Provide the recorded SGCB cell-surface expression functional score (log10) for the entries that follow.
Give bare numbers.

{"variant.description": "D165K", "quantitative.readout": -0.75}
{"variant.description": "G139K", "quantitative.readout": -1.52}
{"variant.description": "P143I", "quantitative.readout": -0.11}
{"variant.description": "H120N", "quantitative.readout": 0.06}
{"variant.description": "V118Q", "quantitative.readout": -0.24}

Record SGCB cell-surface expression functional score (log10) per entry; entries follow.
1. L287H
2. F146V

1: -0.31; 2: -0.32

For every item below, please supply its SGCB cell-surface expression functional score (log10).
1. I166C
2. T213S

[0.54, 0.08]

Working through the 2 variants below one at a time, give SGCB cell-surface expression functional score (log10) for each.
1. I92P
2. G245V

1: -1.96; 2: -0.07
